Where do the numbers come from? From patent US20250179047A1.

- target-desc: BCL2 D111A (Homo sapiens, UniProt P10415, D111A)
- run-description: TR-FRET competitive binding assay, BCL2 D111A
- protocol-conditions: Ki determined from IC50, read-out: TR_FRET EKI_Bcl2 D111A
Documented Ki across a set of molecules

{"item-smiles": "Cc1c(N(C(=O)c2cc(-c3cc4c(cc3C(=O)N3Cc5ccccc5C[C@H]3C)CN(C(=O)Cc3ccc(OCCN5CCO[C@@H](C)C5)cc3)CC4)n(C)c2C)c2ccc(O)cc2)cc(C#N)n1C", "Ki (nM)": 0.21}
{"item-smiles": "Cc1c(N(C(=O)c2cc(-c3cc4c(cc3C(=O)N3Cc5ccccc5C[C@H]3C)CN(C(=O)Cc3ccc(OCCN5CCOCC5)cc3Cl)CC4)n(C)c2C)c2ccc(O)cc2)cc(C#N)n1C", "Ki (nM)": 0.2}
{"item-smiles": "Cc1c(N(C(=O)c2cc(-c3cc4c(cc3C(=O)N3Cc5ccccc5C[C@H]3CN3CCCCC3)CN(C(=O)Cc3ccc(OCCN5CCN(CCF)CC5)cc3F)CC4)n(C)c2C)c2ccc(O)cc2)cc(C#N)n1C", "Ki (nM)": 0.11}
{"item-smiles": "COc1ccc(N(C(=O)c2cc(-c3cc4c(cc3C(=O)N3Cc5ccccc5C[C@H]3C)CN(C(=O)Cc3ccc(OCCN5CCOCC5)cc3)CC4)n(C)c2C)c2ccc(O)cc2)cc1C#N", "Ki (nM)": 0.4}

----------
Documented TR_FRET EKI G101V/WT selectivty ratio across a set of molecules
- Tested on: BCL2 G101V
- run-description: TR-FRET competitive binding assay, BCL2 G101V
- Set-up: species or system human
- protocol-conditions: ratio Ki BCL2 G101V / Ki BCL2 WT

{"molecule": "Cc1c(N(C(=O)c2cc(-c3cc4c(cc3C(=O)N3Cc5ccccc5C[C@H]3CN3CCCCC3)CN(C(=O)Cc3ccc(OCCC5COCCO5)cc3F)CC4)n(C)c2C)c2ccc(O)cc2)cc(C#N)n1C (single isomer, unassigned) [Example 174]", "TR_FRET EKI G101V/WT selectivty ratio": 7.8}
{"molecule": "COc1ccc(N(C(=O)c2cc(-c3cc4c(cc3C(=O)N3Cc5ccccc5C[C@H]3C)CN(C(=O)Cc3ccc(OCCN5CCOCC5)cc3)CC4)n(C)c2C)c2ccc(F)cc2)cc1C#N", "TR_FRET EKI G101V/WT selectivty ratio": 47.5}
{"molecule": "Cc1c(C(=O)N(c2ccc(O)cc2)c2cc(C#N)n(C(F)F)c2C)cc(-c2cc3c(cc2C(=O)N2Cc4ccccc4C[C@H]2C)CN(C(=O)Cc2ccc(OCCN4CCOCC4)cc2F)CC3)n1C", "TR_FRET EKI G101V/WT selectivty ratio": 5.0}
{"molecule": "Cc1c(N(C(=O)c2cc(-c3cc4c(cc3C(=O)N3Cc5ccccc5C[C@H]3C)CN(C(=O)Cc3ccc(OCCN5C[C@@H](C)O[C@@H](C)C5)cc3)CC4)n(C)c2C)c2ccc(O)cc2)cc(C#N)n1C", "TR_FRET EKI G101V/WT selectivty ratio": 3.5}
{"molecule": "Cc1c(N(C(=O)c2cc(-c3cc4c(cc3C(=O)N3Cc5ccccc5C[C@H]3C)CN(C(=O)Cc3ccc(OCCN(C)C)cc3F)CC4)n(C)c2C)c2ccccc2)cc(C#N)n1C", "TR_FRET EKI G101V/WT selectivty ratio": 46.6}
{"molecule": "Cc1c(N(C(=O)c2cc(-c3cc4c(cc3C(=O)N3Cc5ccccc5C[C@H]3CN3CCCC3)CN(C(=O)Cc3ccc(OCCN5CCN(CC(F)F)CC5)cc3)CC4)n(C)c2C)c2ccc(O)cc2)cc(C#N)n1C", "TR_FRET EKI G101V/WT selectivty ratio": 8.4}
{"molecule": "Cc1c(C(=O)N(c2ccc(O)cc2)c2cnn(CC(C)C)c2)cc(-c2cc3c(cc2C(=O)N2Cc4ccccc4C[C@H]2C)CN(C(=O)Cc2ccc(OCCN4CCOCC4)cc2)CC3)n1C", "TR_FRET EKI G101V/WT selectivty ratio": 11.0}
{"molecule": "COc1ncc(N(C(=O)c2cc(-c3cc4c(cc3C(=O)N3Cc5ccccc5C[C@H]3C)CN(C(=O)Cc3ccc(OCCN5CCOCC5)cc3)CC4)n(C)c2C)c2ccc(O)cc2)cc1F", "TR_FRET EKI G101V/WT selectivty ratio": 6.1}
{"molecule": "Cc1c(N(C(=O)c2cc(-c3cc4c(cc3C(=O)N3Cc5ccccc5C[C@H]3C)CN(C(=O)Cc3ccc(OCCN5CCN6CCOC[C@@H]6C5)cc3)CC4)n(C)c2C)c2ccc(O)cc2)cc(C#N)n1C", "TR_FRET EKI G101V/WT selectivty ratio": 2.5}
{"molecule": "Cc1c(N(C(=O)c2cc(-c3cc4c(cc3C(=O)N3Cc5ccccc5C[C@H]3C)CN(C(=O)Cc3ccc(OCCN5CCN(CC(F)F)CC5)cc3)CC4)n(C)c2C)c2ccc(O)cc2)cc(C#N)n1C", "TR_FRET EKI G101V/WT selectivty ratio": 2.0}

----------
- target-desc: BCL2 D103Y (Homo sapiens, UniProt P10415, D103Y)
- run-description: TR-FRET competitive binding assay, BCL2 D103Y
- protocol-conditions: Ki determined from IC50, read-out: TR_FRET EKI_Bcl2 D103Y
Please use Met for Ki under 0.2 nM and Not met for everything else, ties included.

{"molecule": "CCN(CC)C[C@@H]1Cc2ccccc2CN1C(=O)c1cc2c(cc1-c1cc(C(=O)N(c3ccc(O)cc3)c3cc(C#N)n(C)c3C)c(C)n1C)CCN(C(=O)Cc1ccc(OCCN3CCOCC3)cc1F)C2", "label-value": "Met"}
{"molecule": "Cc1c(N(C(=O)c2cc(-c3cc4c(cc3C(=O)N3Cc5ccccc5C[C@H]3C)CN(C(=O)Cc3ccc(OCCN(C)C5CC5)cc3)CC4)n3c2CCCC3)c2ccc(O)cc2)cc(C#N)n1C", "label-value": "Not met"}
{"molecule": "Cc1c(N(C(=O)c2cc(-c3cc4c(cc3C(=O)N3Cc5ccccc5C[C@H]3CN3CCCC3)CN(C(=O)Cc3ccc(OCCN(C)C5CC5)cc3F)CC4)n(C)c2C)c2ccc(O)cc2)cc(C#N)n1C", "label-value": "Met"}
{"molecule": "Cc1c(N(C(=O)c2cc(-c3cc4c(cc3C(=O)N3Cc5ccccc5C[C@H]3CN3CCC(F)(F)CC3)CN(C(=O)Cc3ccc(OCCN5CCOCC5)cc3F)CC4)n(C)c2C)c2ccc(O)cc2)cc(C#N)n1C", "label-value": "Not met"}
{"molecule": "CCOC[C@@H]1Cc2ccccc2CN1C(=O)c1cc2c(cc1-c1cc(C(=O)N(c3ccc(O)cc3)c3cc(C#N)n(C)c3C)c(C)n1C)CCN(C(=O)Cc1ccc(OCCN3CCOCC3)cc1F)C2", "label-value": "Not met"}
{"molecule": "Cc1c(N(C(=O)c2cc(-c3cc4c(cc3C(=O)N3Cc5ccccc5C[C@H]3C)CN(Cc3cc5ccccc5cn3)CC4)n(C)c2C)c2ccc(O)cc2)cc(C#N)n1C", "label-value": "Not met"}
{"molecule": "Cc1c(N(C(=O)c2cc(-c3cc4c(cc3C(=O)N3Cc5ccccc5C[C@H]3CCN3CCCCC3)CN(C(=O)Cc3ccc(OCCN5CCOCC5)cc3F)CC4)n(C)c2C)c2ccc(O)cc2)cc(C#N)n1C", "label-value": "Met"}
{"molecule": "Cc1c(N(C(=O)c2cc(-c3cc4c(cc3C(=O)N3Cc5ccccc5C[C@H]3CN3CCC[C@@H]3C)CN(C(=O)Cc3ccc(OCCN5CCOCC5)cc3F)CC4)n(C)c2C)c2ccc(O)cc2)cc(C#N)n1C", "label-value": "Met"}
{"molecule": "Cc1c(N(C(=O)c2cc(-c3cc4c(cc3C(=O)N3Cc5ccccc5C[C@H]3CN3CCCCC3)CN(C(=O)Cc3ccc(OCCN5CCOC(C)C5)cc3F)CC4)n(C)c2C)c2ccc(O)cc2)cc(C#N)n1C (single isomer, unassigned) [Example 108]", "label-value": "Met"}

----------
- target-desc: UniProt:P10415
- run-description: TR-FRET competitive binding assay, BCL2 WT
- protocol-conditions: Ki determined from IC50, read-out: TR_FRET EKI_Bcl2 WT
pKi: −log10 of the molar value.

{"item-smiles": "Cc1c(N(C(=O)c2cc(-c3cc4c(cc3C(=O)N3Cc5ccccc5C[C@H]3C)CN(C(=O)Cc3ccc(OCCN5CCC(O)CC5)cc3)CC4)n(C)c2C)c2ccc(O)cc2)cc(C#N)n1C", "target-desc": "UniProt:P10415", "pKi": 10.00}
{"item-smiles": "Cc1c(N(C(=O)c2cc(-c3cc4c(cc3C(=O)N3Cc5ccccc5C[C@H]3CN3CCCCC3)CN(C(=O)Cc3ccc(O[C@H]5CCN(CCF)C5)cc3F)CC4)n(C)c2C)c2ccc(O)cc2)cc(C#N)n1C", "target-desc": "UniProt:P10415", "pKi": 10.15}
{"item-smiles": "Cc1c(N(C(=O)c2cc(-c3cc4c(cc3C(=O)N3Cc5ccccc5C[C@H]3CN3CCCCCC3)CN(C(=O)Cc3ccc(OCCN5CCOCC5)cc3F)CC4)n(C)c2C)c2ccc(O)cc2)cc(C#N)n1C", "target-desc": "UniProt:P10415", "pKi": 10.22}
{"item-smiles": "CCn1cc(N(C(=O)c2cc(-c3cc4c(cc3C(=O)N3Cc5ccccc5C[C@H]3C)CN(C(=O)Cc3ccc(OCCN5CCOCC5)cc3)CC4)n(C)c2C)c2ccccc2)c(C)n1", "target-desc": "UniProt:P10415", "pKi": 10.40}
{"item-smiles": "Cc1c(N(C(=O)c2cc(-c3cc4c(cc3C(=O)N3Cc5ccccc5C[C@H]3C)CN(C(=O)Cc3ccc(OCCN5CCO[C@H](C)C5)cc3)CC4)n(C)c2C)c2ccc(O)cc2)cc(C#N)n1C", "target-desc": "UniProt:P10415", "pKi": 10.22}
